TARGET ENTITY: human TAS1R2-I486V/TAS1R3-WT (Homo sapiens, UniProt Q7RTX0+Q8TE23, I486V)
Sequence (Q8TE23 20-839 I486V): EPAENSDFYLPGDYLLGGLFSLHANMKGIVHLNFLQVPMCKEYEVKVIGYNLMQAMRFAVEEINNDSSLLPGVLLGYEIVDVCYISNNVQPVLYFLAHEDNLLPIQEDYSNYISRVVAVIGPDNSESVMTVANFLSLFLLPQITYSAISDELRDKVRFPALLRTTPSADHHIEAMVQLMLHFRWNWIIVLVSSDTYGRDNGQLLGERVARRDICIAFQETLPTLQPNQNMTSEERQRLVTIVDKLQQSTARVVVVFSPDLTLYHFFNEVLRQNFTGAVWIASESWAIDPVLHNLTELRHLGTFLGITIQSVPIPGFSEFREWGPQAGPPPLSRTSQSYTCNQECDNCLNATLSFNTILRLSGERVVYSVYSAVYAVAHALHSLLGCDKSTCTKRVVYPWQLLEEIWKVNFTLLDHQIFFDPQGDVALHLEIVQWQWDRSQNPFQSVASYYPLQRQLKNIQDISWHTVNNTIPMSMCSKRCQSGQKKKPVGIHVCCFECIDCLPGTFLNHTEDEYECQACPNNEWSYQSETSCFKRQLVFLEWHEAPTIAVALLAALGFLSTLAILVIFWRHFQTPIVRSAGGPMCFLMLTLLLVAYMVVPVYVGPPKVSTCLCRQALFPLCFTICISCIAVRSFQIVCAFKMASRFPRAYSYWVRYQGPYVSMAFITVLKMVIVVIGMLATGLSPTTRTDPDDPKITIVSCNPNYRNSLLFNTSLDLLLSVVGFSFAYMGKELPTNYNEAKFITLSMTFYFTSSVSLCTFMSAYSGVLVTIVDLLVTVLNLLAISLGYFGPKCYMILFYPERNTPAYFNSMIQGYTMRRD
Sequence (Q7RTX0 21-852): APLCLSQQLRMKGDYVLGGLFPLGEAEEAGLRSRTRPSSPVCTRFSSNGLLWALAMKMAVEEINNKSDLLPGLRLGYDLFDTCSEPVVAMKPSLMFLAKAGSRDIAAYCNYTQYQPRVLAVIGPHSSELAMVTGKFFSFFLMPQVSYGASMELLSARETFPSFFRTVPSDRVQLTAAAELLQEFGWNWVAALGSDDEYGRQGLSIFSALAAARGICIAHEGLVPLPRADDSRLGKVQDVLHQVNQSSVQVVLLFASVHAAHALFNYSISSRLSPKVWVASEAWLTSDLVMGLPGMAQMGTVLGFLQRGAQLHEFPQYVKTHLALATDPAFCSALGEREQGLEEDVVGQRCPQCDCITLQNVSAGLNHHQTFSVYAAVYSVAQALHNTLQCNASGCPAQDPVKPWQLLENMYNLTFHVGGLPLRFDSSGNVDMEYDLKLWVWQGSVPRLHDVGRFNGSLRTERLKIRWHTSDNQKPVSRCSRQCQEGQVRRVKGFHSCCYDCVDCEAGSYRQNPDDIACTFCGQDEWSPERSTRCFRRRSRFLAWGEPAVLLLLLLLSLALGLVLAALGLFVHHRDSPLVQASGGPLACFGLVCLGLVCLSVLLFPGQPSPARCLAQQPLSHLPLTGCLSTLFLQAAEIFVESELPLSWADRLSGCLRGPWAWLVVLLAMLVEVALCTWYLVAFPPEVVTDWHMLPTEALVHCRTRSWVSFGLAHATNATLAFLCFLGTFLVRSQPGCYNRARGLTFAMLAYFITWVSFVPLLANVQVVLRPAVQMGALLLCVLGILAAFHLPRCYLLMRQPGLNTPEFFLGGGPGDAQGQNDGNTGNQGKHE
EXPERIMENT NOTES: Calcium mobilisation assay, TAS1R2 variant I486V with TAS1R3-WT
pEC50: −log10 of the molar value.
READOUT TYPE: pEC50

O=S(=O)(O)NC1CCCCC1 [Cyclamate, cyclamate]	2.73

A = COC(=O)[C@H](Cc1ccccc1)NC(=O)[C@H](CC(=O)O)NCCC(C)(C)C
B = COc1ccc(CCC(=O)c2c(O)cc(O[C@@H]3O[C@H](CO)[C@@H](O)[C@H](O)[C@H]3O[C@@H]3O[C@@H](C)[C@H](O)[C@@H](O)[C@H]3O)cc2O)cc1O [NHDC, neohesperidin dihydrochalcone]
C = OC[C@H]1O[C@H](O[C@]2(CCl)O[C@H](CCl)[C@@H](O)[C@@H]2O)[C@H](O)[C@@H](O)[C@H]1Cl
D = CC1=CC(=O)NS(=O)(=O)O1
Order field: pEC50 | Direction: descending (largest first) Write the labels in rank order as requested.
A, C, B, D
(A: 6.15, C: 4.27, B: 4.03, D: 3.11)
